Target: T1, cynomolgus (Macaca fascicularis) LRRC15 extracellular domain with C-terminal His tag (cynomolgus monkey (Macaca fascicularis), UniProt Q8TF66 22-538 (human entry))
T1 construct: Recombinant, made in HEK293; the entry holds the extracellular domain and the His tag; SPR analyte; also called TPP-9046
T1 chain: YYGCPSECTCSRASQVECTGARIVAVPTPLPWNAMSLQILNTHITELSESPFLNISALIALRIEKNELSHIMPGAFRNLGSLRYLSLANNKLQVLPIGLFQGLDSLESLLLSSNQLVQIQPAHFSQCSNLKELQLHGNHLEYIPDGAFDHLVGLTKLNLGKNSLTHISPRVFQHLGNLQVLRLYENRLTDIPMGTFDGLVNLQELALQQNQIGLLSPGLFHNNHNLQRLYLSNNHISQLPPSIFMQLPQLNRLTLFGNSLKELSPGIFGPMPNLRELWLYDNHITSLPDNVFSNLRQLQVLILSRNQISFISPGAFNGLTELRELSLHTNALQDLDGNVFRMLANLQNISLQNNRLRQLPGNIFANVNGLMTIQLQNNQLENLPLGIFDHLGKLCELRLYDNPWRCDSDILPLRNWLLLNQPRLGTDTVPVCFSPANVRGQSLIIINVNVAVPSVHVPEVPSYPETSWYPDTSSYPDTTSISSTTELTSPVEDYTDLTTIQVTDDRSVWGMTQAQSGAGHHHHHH
Assay: SPR (Example 6), overview table, repeats Table 9; head prints [M^-1]
Below: a set of entries, each annotated with reported pKd.
Would you please state pKd, meaning minus log10 of the concentration in mol/L, as a bare number?

binder	pKd
TPP-17421 (antibody, human IgG1, kappa, V domains shown, also called 438H-M306-C11-hIgG1Kappa) VH: EVQLVQSGAEVKKPGASVKVSCKASGYKFSSYWIEWVKQAPGQGLEWIGEILPGSDWTNYNEKFKDRATFTSDTSINTAYMELSRLRSDDTAVYYCARDRGNYRAWFQYWGQGTLVTVSS VL: DIQMTQSPSSLSASVGDRVTITCRASQSISSYLNWYQQKPGGAPKFLIYYASSLQSGVPSRFSGSGSGTDYTLTISSLQPEDFATYYCQQGLELPWTFGGGTKVEIKR	9.04
TPP-17405 (antibody, human IgG1, kappa, V domains shown, also called 438H-M345-F05-hIgG1Kappa) VH: EVQLVQSGAEVKKPGASVKVSCKASGYKFSSYWIEWVKQAPGQGLEWIGEILPGSDTTNYNEKFKDRATFTSDTSINTAYMELSRLRSDDTAVYYCARDRGNYRAWFQYWGQGTLVTVSS VL: DIQMTQSPSSLSASVGDRVTITCRASQRISSYLNWYQQKPGGAPKFLIYYASSLQSGVPSRFSGSGSGTDYTLTISSLQPEDFATYYCDQGLELPWTFGGGTKVEIKR	9.11
TPP-17078 (antibody, human IgG1, kappa, V domains shown, also called 438H-M308-H05-hIgGkappa) VH: EVQLVQSGAEVKKPGASVKVSCKASGYKFSSYWIEWVKQAPGQGLEWIGEILPGSDTTNYNEKFKDRATFTSDTSINTAYMELSRLRSDDTAVYYCARDRGNYRAWFGYWGQGTLVTVSS VL: DIQMTQSPSSLSASVGDRVTITCRASQSISSYLNWYQQKPGGAPKFLIYYASSLQSGVPSRFSGSGSGTDYTLTISSLQPEDFATYYCQQGFSLPWTFGGGTKVEIKR	8.74

Requested field: pKd. Item: TPP-17418 (antibody, human IgG1, kappa, V domains shown, also called 438H-M308-H05_B-hIgG1Kappa) VH: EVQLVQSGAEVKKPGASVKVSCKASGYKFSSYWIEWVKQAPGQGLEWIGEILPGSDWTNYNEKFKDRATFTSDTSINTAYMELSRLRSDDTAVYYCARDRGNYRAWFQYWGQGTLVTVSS VL: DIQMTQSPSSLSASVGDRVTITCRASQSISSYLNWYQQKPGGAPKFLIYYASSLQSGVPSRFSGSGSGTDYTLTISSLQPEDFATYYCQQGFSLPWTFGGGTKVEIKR
9.00
